Reported values of pIC50 for individual entries
- ASSAYED SYSTEM: BTK (Homo sapiens (Human), UniProt Q06187)
- Sequence (Q06187 whole entry): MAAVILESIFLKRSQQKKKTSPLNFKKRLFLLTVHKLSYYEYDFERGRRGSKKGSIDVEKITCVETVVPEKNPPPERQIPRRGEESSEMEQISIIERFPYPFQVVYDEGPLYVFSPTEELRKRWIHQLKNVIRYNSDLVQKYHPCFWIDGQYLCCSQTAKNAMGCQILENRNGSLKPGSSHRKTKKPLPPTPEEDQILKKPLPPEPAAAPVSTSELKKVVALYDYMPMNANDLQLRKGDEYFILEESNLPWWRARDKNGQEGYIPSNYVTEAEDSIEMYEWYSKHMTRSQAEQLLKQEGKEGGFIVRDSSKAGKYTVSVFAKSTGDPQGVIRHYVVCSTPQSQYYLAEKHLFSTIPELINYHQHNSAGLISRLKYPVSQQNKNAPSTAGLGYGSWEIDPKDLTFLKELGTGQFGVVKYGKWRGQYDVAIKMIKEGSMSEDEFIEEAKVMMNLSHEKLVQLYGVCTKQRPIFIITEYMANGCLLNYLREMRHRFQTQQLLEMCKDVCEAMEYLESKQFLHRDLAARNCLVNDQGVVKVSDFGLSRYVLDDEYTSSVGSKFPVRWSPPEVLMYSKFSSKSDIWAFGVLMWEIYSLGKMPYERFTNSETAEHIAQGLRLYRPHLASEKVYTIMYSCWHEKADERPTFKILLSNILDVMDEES
pIC50: −log10 of the molar value.

{"ITEM SMILES": "CC(C)(C)n1cc(C(=O)NCc2ccc(-c3ncnn4cc(N5CCOCC5)cc34)c(F)c2C2CC2)nn1", "RESULT": "8.00 to 9.00"}

State pIC50 on BTK (Homo sapiens (Human), UniProt Q06187). Entry: COc1c(CNC(=O)c2noc(C(C)(C)C)n2)ccc(-c2ncnn3cc(-c4cnn(C)c4)cc23)c1F
≥ 9.00

State pIC50 on BTK (Homo sapiens (Human), UniProt Q06187). Entry: Cc1cc(-c2ncnn3cc(-c4cnn(C)c4)cc23)ccc1CNC(=O)c1cnn(C(C)(C)C)c1
≥ 9.00

State pIC50 on BTK (Homo sapiens (Human), UniProt Q06187). Entry: CC(C)(C)c1nc(C(=O)NCc2ccc(-c3ncnn4cc(N5CCOCC5)cc34)cc2C(F)F)co1
≥ 9.00

----------
- ASSAYED SYSTEM: BTK (Homo sapiens (Human))
Counter-ions that a name gives are not always drawn.
OBSERVED PROPERTY: IC50

Example compounds with recorded IC50:
{"COMPOUND": "CC(C)(C)n1cc(C(=O)NCc2ccc(-c3ncnn4cc(-c5cnn(CC(F)F)c5)cc34)cc2C(F)F)cn1", "OBSERVED PROPERTY": "IC50", "RESULT": "≤ 1 nM"}
{"COMPOUND": "Cc1cc(-c2ccnn3cccc23)ccc1CNC(=O)c1noc(C(C)(C)C)n1", "OBSERVED PROPERTY": "IC50", "RESULT": "1 to 10 nM"}
{"COMPOUND": "Cc1cc(-c2ccnc3cc(-c4cnn(C)c4)nn23)ccc1CNC(=O)c1noc(C(C)(C)C)n1 [Example 16, trifluoroacetate]", "OBSERVED PROPERTY": "IC50", "RESULT": "≤ 1 nM"}

Using the record for Cc1cc(-c2ncnn3cccc23)ccc1CNC(=O)c1coc(C(C)(F)F)n1 [Example 20, trifluoroacetate] , state its measured IC50.
> 10 nM

----------
// IC50 collected for BTK (Homo sapiens (Human), UniProt Q06187)
Counter-ions that a name gives are not always drawn.

{"COMPOUND": "Cc1cc(-c2ncnn3cc(C#N)cc23)ccc1CNC(=O)c1noc(C(C)(C)C)n1", "IC50": "1 to 10 nM"}
{"COMPOUND": "Cc1cc(-c2ncnn3cc(-c4ccccn4)cc23)ccc1CNC(=O)c1noc(C(C)(C)C)n1", "IC50": "≤ 1 nM"}
{"COMPOUND": "COc1cc(-c2ncnn3cc(-c4cnn(C)c4)cc23)ccc1CNC(=O)c1nnc(C(C)(C)C)o1", "IC50": "1 to 10 nM"}
{"COMPOUND": "Cc1cc(-c2ncnn3cc(N4CCN(C)C[C@H]4C)cc23)ccc1CNC(=O)c1noc(C(C)(C)C)n1 [Example 70, trifluoroacetate]", "IC50": "1 to 10 nM"}

State IC50 on BTK (Homo sapiens (Human), UniProt Q06187). Entry: CC(C)(C)c1noc(C(=O)NCc2ccc(-c3ncnn4cc(N5CCOCC5)cc34)c(F)c2Cl)n1 [Example 14, trifluoroacetate]
≤ 1 nM

State IC50 on BTK (Homo sapiens (Human), UniProt Q06187). Entry: Cn1cc(-c2cc3c(-c4ccc(CNC(=O)c5coc(C(C)(C)C)n5)c(C(F)F)c4)ncnn3c2)cn1
≤ 1 nM

State IC50 on BTK (Homo sapiens (Human), UniProt Q06187). Entry: Cc1cc(-c2ncnn3cc(C4CCOCC4)cc23)ccc1CNC(=O)c1nc(C(C)(C)C)no1 [Example 72, trifluoroacetate]
1 to 10 nM

State IC50 on BTK (Homo sapiens (Human), UniProt Q06187). Entry: CC(C)(C)c1noc(C(=O)NCc2ccc(-c3ncnn4cc(N5CCOCC5)cc34)cc2C(F)(F)F)n1
≤ 1 nM

State IC50 on BTK (Homo sapiens (Human), UniProt Q06187). Entry: Cc1c(CNC(=O)c2cnn(C(C)(C)C)c2)ccc(-c2ncnn3cc(N4CCOCC4)cc23)c1F
≤ 1 nM

State IC50 on BTK (Homo sapiens (Human), UniProt Q06187). Entry: Cc1c(CNC(=O)c2nc(C(C)(C)C)no2)ccc(-c2ccnc3cc(-c4cnn(C)c4)nn23)c1F
≤ 1 nM
